study.target: recombinant human cannabinoid 1 receptor (CB1) (Homo sapiens, UniProt P21554)
Sequence (P21554 whole entry): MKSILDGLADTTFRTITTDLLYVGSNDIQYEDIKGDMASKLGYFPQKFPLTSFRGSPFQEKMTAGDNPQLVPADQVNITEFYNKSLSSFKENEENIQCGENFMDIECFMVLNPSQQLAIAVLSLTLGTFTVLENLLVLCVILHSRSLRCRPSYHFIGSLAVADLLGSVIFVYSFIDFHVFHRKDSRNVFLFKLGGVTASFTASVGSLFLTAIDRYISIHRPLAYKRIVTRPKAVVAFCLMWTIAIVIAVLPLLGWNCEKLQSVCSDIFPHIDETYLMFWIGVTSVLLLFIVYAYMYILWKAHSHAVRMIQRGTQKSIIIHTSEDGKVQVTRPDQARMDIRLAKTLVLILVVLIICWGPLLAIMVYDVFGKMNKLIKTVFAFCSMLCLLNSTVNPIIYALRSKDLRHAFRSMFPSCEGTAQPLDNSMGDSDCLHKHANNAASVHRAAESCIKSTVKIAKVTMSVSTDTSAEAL
experimental.details: In vitro determination of antagonism to CB1-receptor ([35S]GTPγS binding assay, CHO cell membranes)
Format: biochemical
condition.parameters: compound at 1 μM against agonist WIN 55,212-2 (3 nM to 3 μM); effect of Rimonabant (1 μM) defined as 100%
Protocol: Chinese hamster ovary (CHO) cells stably expressing recombinant human cannabinoid 1 receptor (CB1) were cultured in nutrient mixture Ham's F 12 supplemented with 10% heat-inactivated fetal bovine serum, 2 mM L-glutamine, 50 U/ml penicillin, 50 U/ml streptomycin and 0.5 mg/ml geneticin. In order to obtain cells, culture flasks were washed twice with phosphate buffered saline and scraped. […] The reaction was performed in 96-well plates. […] Radioactivity was determined using a Wallac Microbeta Trilux. […]
Quick list: Antagonism [%] per entry.
Express the result in % but write the number alone.

# count of solved cases: 7
C[C@@H]1CN(C(=O)C2=NN(c3ccc(Cl)cc3Cl)C(c3ccc(Cl)cc3)C2)C[C@H](C)O1 (some centres unmarked) :: 56
CCCCCCNC(=O)C1=NN(c2ccc(Cl)cc2Cl)C(c2ccc(Cl)cc2)C1 (centres unmarked) :: 61
CC1CCC(NC(=O)C2=NN(c3ccc(Cl)cc3Cl)C(c3ccc(Cl)cc3)C2)CC1 (centres unmarked) :: 65
O=C(NN1C(=O)c2cccc3cccc(c23)C1=O)C1=NN(c2ccc(Cl)cc2Cl)C(c2ccc(Cl)cc2)C1 (centres unmarked) :: 27
COc1ccc(C2CC(C(=O)NN3CCCCC3)=NN2c2ccc(Cl)cc2Cl)cc1 (centres unmarked) [Example 106A] :: 112
O=C(C1=NN(c2ccc(Cl)cc2Cl)C(c2ccc(Cl)cc2)C1)N1C=NCCC1 (centres unmarked) :: 42
O=C(NN1CCN(C2CCCC2)CC1)C1=NN(c2ccc(Cl)cc2Cl)C(c2ccc(Br)cc2)C1 (centres unmarked) :: 63

Now for another entry.
Challenge: Given the molecule O=C(C1=NN(c2ccc(Cl)cc2Cl)C(c2ccc(Cl)cc2)C1)N1CCC2CCCCC2C1 (centres unmarked) , write its reported Antagonism [%].
Response given: 62

All figures here come from patent US8207156B2.
